Source listed as patent US20250084036A1.

Parameter Residual rate (%) of unchanged form: see the listing below.
Measurement notes: Test Example 3: Metabolic stability with human hepatic microsomes
Assay type: in vitro ADME
Experimental context: human hepatic microsomes 0.1 mg protein/mL, 0.1 μmol/L test compound, after 30 minutes, 37° C.
// return numeric value only (unit: %, not printed)

Worked cases, Residual rate (%) of unchanged form given:
COc1ncc(CNC(=O)c2cc(-c3ncccc3CO)ccc2F)cc1F; 93
O=C(NCc1cnc(OC2CC2)c(F)c1)c1cc(-c2ncccc2CO)ccc1F; 93
COCc1ccc(CNC(=O)c2cc(-c3ncccc3CO)ccc2F)cn1; 96

QUERY: What value of Residual rate (%) of unchanged form has been reported for the following molecule? COc1ncc(CNC(=O)c2cc(-c3ncccc3[C@@H](C)O)ccc2F)cc1F (single isomer, unassigned) [Example 5]
RESULT: 92

QUERY: Need Residual rate (%) of unchanged form, item CCOc1ncc(CNC(=O)c2cc(-c3ncccc3CO)ccc2F)cc1F
RESULT: 89

QUERY: Fill in: Residual rate (%) of unchanged form of O=C(NCc1ccc(OC(F)F)nc1)c1cc(-c2ncccc2CO)ccc1F is ___
RESULT: 47
